Assay: ATG_VDRE_CIS: Attagene CIS-FACTORIAL HepG2 Assay for human Vitamin D Receptor Element (VDRE) (AID 2282968)
Conditions: HepG2 VDRE cis-reporter transcription, actives raise or lower the signal
Active and inactive are the calls of the source. How the source made its calls: active means hit-call score of the fitted dose curve at least 0.9, where 1 is the maximum; inactive means score below 0.9.
Hi! Could you answer with just one of these? 1 (active), -1 (inactive)

{"Compound": "C=CC1(C)OC(=O)N(c2cc(Cl)cc(Cl)c2)C1=O (stereo unspecified)", "Answer Label": -1}
{"Compound": "CC1COC(Cn2cncn2)(c2ccc(Oc3ccc(Cl)cc3)cc2Cl)O1 (stereo unspecified)", "Answer Label": 1}
{"Compound": "COc1nc(C)nc(NC(=O)NS(=O)(=O)c2ccccc2Cl)n1", "Answer Label": -1}

Hi, do you know how COC(=O)C(C)Oc1ccc(Oc2ccc(Cl)cc2Cl)cc1 (stereo unspecified) came out in this test?
-1

Hi, do you know how CCc1nn(C)c(C(=O)NCc2ccc(C(C)(C)C)cc2)c1Cl came out in this test?
1

Hi, do you know how COC(=O)C=C(C)OP(=O)(OC)OC came out in this test?
-1

----------
Read-out: Early growth response protein 1 (EGR1) transcription factor, EGR1 (gene 1958)
Assay: LTEA_HepaRG_EGR1: Life Technologies and Expression Analysis (LTEA) Assay for Early growth response protein 1 (EGR1) transcription factor using HepaRG (AID 2283490)
Details: mRNA level, 48 h; actives raise or lower the signal
Activity calls are given as the source filed them. How the source made its calls: active means hit-call score of the fitted dose curve at least 0.9, where 1 is the maximum; inactive means score below 0.9.
Hi! Could you answer with just one of these? active, inactive

{"Compound": "Cc1c(F)c(F)c(COC(=O)C2C(/C=C(\\Cl)C(F)(F)F)C2(C)C)c(F)c1F (stereo unspecified)", "Answer Label": "inactive"}

Hi, do you know how O=C(O)c1nc(Cl)ccc1Cl came out in this test?
inactive

Hi, do you know how Fc1ccc(Oc2ccnc3cc(Cl)cc(Cl)c23)cc1 came out in this test?
inactive

Hi, do you know how COc1nc(NC(C)C)nc(NC(C)C)n1 came out in this test?
inactive

Hi, do you know how C=CCC1=C(C)[C@@H](OC(=O)[C@@H]2[C@@H](C=C(C)C)C2(C)C)CC1=O came out in this test?
inactive

Hi, do you know how CCCCOC(=O)c1ccccc1C(=O)OCCCC came out in this test?
inactive

Hi, do you know how CCc1nn(C)c(C(=O)NCc2ccc(C(C)(C)C)cc2)c1Cl came out in this test?
active

Hi, do you know how CCCC1COC(Cn2cncn2)(c2ccc(Cl)cc2Cl)O1 (stereo unspecified) came out in this test?
inactive

Hi, do you know how CCOC(=O)C(Cl)Cc1cc(-n2nc(C)n(C(F)F)c2=O)c(F)cc1Cl (stereo unspecified) came out in this test?
inactive

Hi, do you know how CCCCNC(=O)OCC#CI came out in this test?
inactive

Hi, do you know how CCNc1nc(Cl)nc(NC(C)C)n1 came out in this test?
inactive

Hi, do you know how COP(N)(=O)SC (stereo unspecified) came out in this test?
inactive

Hi, do you know how O=C(Nc1ccccc1)Nc1ccnc(Cl)c1 came out in this test?
active

Hi, do you know how CN(C)C(=S)SSC(=S)N(C)C came out in this test?
inactive

Hi, do you know how CNC(=S)S came out in this test?
inactive

Hi, do you know how CC(C)Oc1cc(-n2nc(C(C)(C)C)oc2=O)c(Cl)cc1Cl came out in this test?
inactive

Hi, do you know how OC(c1ccc(Cl)cc1)(c1cncnc1)c1ccccc1Cl (stereo unspecified) came out in this test?
inactive
